Source: patent US9944618B2

- Tested Target: human dopamine transporter (Homo sapiens (Human), UniProt Q01959)
- Sequence (Q01959 whole entry): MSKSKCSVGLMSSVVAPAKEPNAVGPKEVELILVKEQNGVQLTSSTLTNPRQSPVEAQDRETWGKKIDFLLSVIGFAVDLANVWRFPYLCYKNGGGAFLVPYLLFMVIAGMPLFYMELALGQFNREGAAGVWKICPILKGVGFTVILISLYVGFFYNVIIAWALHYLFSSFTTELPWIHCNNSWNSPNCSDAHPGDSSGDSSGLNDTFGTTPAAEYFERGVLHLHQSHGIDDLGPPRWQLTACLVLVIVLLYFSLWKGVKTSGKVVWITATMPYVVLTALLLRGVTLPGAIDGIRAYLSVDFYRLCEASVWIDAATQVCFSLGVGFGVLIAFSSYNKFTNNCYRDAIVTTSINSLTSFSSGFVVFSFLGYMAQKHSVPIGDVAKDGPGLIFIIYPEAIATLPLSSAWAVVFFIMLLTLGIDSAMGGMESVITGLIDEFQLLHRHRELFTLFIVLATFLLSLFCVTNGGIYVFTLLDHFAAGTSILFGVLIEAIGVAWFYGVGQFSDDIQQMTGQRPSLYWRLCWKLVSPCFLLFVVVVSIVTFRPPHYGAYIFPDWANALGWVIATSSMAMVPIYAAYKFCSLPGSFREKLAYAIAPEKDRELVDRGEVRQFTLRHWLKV
- Assay Remarks: Human DAT (dopamine transporter) uptake assay
- Assay type: cell-based
- Particulars: read-out: hDAT Ki
Catalogue of Ki values
Field: value (include unit after the number)

Exercise: In one line, give reported Ki of the entry CN(C)C[C@H](c1ccc(Cl)c(Cl)c1)[C@H](O)c1ccccc1 (racemic) [Compound 105] .
Solution: 18.1 nM

Exercise: Tell me Ki reported for CCc1cccc([C@@H](O)[C@H](CNC)c2ccc(Cl)c(Cl)c2)c1 [Compound 159]
Solution: 55.8 nM

Exercise: Fill in reported Ki for this entry: CNC[C@H](c1ccc2ccccc2c1)[C@H](OCc1noc(C)n1)c1ccccc1 [Compound 22]
Solution: 56.7 nM

Exercise: Return the recorded Ki value; entry: CNC[C@H](c1ccc2ccccc2c1)[C@H](OCC(=O)NCC(F)(F)F)c1ccccc1 [Compound 68]
Solution: 55.5 nM

Exercise: // fetch Ki given entry NCC(Cc1ccccc1F)c1ccc2ccccc2c1 (stereo not shown) [Compound 137]
Solution: 77.7 nM

Exercise: Identify measured Ki corresponding to CNC[C@@H](c1ccc2ccccc2c1)[C@H](O)c1ccccn1 [Compound 99]
Solution: 287 nM

Exercise: # return recorded Ki for input CNC[C@@H](c1ccc(Cl)c(Cl)c1)[C@H](O)c1cccc(NC(C)=O)c1 [Compound 98]
Solution: 216 nM

Exercise: Report Ki for CNC[C@H](c1ccc(Cl)c(Cl)c1)[C@@H](O)c1cccc(NS(=O)(=O)C(F)(F)F)c1 [Compound 127]
Solution: 80.5 nM

Exercise: Give reported Ki value for CNC[C@H](c1ccc(Cl)c(Cl)c1)[C@@H](O)c1ccccc1I [Compound 152]
Solution: 31.8 nM

Exercise: Answer with reported Ki of CNC[C@H](c1ccc2ccccc2c1)[C@H](OCc1cccc(=O)n1C)c1ccccc1 [Compound 79]
Solution: 73.3 nM

--- query ---
Exercise: Specify Ki for CNC[C@H](c1ccc(Cl)c(Cl)c1)[C@H](O)c1ccccc1OC [Compound 160] and stop.
Solution: 83.5 nM
